Molecular target: Apolipoprotein L1 (Homo sapiens)
Test: Inhibition of APOL1 G1 variant in human HEK293-T-REx cells measured by Thallium assay
measured-endpoint: IC50

Consider the worked cases shown below.
{"compound": "O=C(NCCO)[C@H]1C[C@@H](c2c(-c3ccc(F)cc3)[nH]c3c(F)cc(F)cc32)C1", "assay-target": "Apolipoprotein L1 (Homo sapiens)", "measured-endpoint": "IC50", "result": "0.25 nM"}
{"compound": "CCC(O)CNC(=O)O[C@H]1C[C@H](c2c(-c3ccc(F)cc3)[nH]c3c(F)cc(F)cc32)C1 (some centres undefined)", "assay-target": "Apolipoprotein L1 (Homo sapiens)", "measured-endpoint": "IC50", "result": "> 1000 nM"}
{"compound": "Cn1cnc(CNC(=O)C2(F)CC(c3c(-c4ccc(F)cc4)[nH]c4c(F)cc(F)cc34)C2)c1 (centres undefined)", "assay-target": "Apolipoprotein L1 (Homo sapiens)", "measured-endpoint": "IC50", "result": "< 250 nM"}

With those in mind, consider the next compound.
// query IC50 value for entry O=C([C@H]1C[C@H](c2c(-c3ccc(F)cc3)[nH]c3c(F)cc(F)cc32)C1)N1CC[C@@H]1CO
// result < 250 nM
